Below is a list of entries, each paired with its recorded IC50 value.
test: Inhibition of T3SS-mediated LcrQ secretion in Yersinia pseudotuberculosis assessed as yopE promoter-luciferase gene expression by luciferase reporter gene assay
ENDPOINT_NAME: IC50 (µM)

- O=C(N/N=C/c1cc(Cl)cc(Cl)c1O)c1ccccc1: 25
- O=C(N/N=C/c1cc(Br)cc(Br)c1O)c1ccc([N+](=O)[O-])cc1: 15
- O=C(N/N=C/c1ccc(O)cc1O)c1ccc([N+](=O)[O-])cc1: 25
- O=C(N/N=C/c1cc(Br)cc(Br)c1O)c1cccnc1: 25

* * *

test: Inhibition of T3SS-mediated carboxypeptidase G2-SopE2-HA secretion in Salmonella typhimurium by fluorescence analysis; design: species or system Salmonella enterica subsp. enterica serovar Typhimurium
pIC50: −log10 of the molar value.
ENDPOINT_NAME: pIC50

- O=C(N/N=C/c1cc(Br)cc(Br)c1O)c1ccc([N+](=O)[O-])cc1: 5.26
